Values compiled from patent US20250034269A1.

# Study System: T1, human LTBR on cells (human, UniProt P36941 31-435)
# T1 construct: also called recombinant human LTBR CHO cells; CHO-K1 cells overexpressing human LTBR
# Assay Explanation: FACS CHO-huLTBR, 0.01 µg/ml
Measure Name: MFI (MFI)
Give a bare numeral; the unit MFI is implied.

{"Binder": "P1AF0079 (antibody, human IgG1, kappa, L234A L235A, V domains shown, human IgG1 PG LALA; from transgenic rabbit immunization; also called LTBR (0079)) VH: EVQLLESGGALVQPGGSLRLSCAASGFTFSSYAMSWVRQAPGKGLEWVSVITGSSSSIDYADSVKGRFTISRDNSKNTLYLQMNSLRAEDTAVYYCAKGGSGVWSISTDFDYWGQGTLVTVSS VL: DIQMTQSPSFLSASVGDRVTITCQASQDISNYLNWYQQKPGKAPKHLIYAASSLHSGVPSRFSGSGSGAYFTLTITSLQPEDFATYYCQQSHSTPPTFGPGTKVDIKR", "Unit Tag": "MFI", "MFI": 3380}

Sample P1AE9459 (antibody, human IgG1, kappa, L234A L235A, V domains shown, human IgG1 PG LALA; from transgenic rabbit immunization) VH: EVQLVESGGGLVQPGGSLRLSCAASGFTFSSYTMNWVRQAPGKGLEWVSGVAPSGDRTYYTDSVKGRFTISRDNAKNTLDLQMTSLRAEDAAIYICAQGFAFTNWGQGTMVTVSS VL: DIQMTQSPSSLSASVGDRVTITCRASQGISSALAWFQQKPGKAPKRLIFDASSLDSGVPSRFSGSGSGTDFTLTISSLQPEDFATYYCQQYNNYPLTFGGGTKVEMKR ; MFI observed: 3750

Sample P1AF0080 (antibody, human IgG1, kappa, L234A L235A, V domains shown, human IgG1 PG LALA; from transgenic rabbit immunization; also called LTBR (0080)) VH: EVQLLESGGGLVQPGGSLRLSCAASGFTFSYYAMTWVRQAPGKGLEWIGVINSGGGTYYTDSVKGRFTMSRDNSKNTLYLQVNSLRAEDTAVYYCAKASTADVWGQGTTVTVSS VL: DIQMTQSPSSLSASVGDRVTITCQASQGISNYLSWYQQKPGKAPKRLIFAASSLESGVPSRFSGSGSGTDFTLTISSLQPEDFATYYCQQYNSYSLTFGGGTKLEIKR ; MFI observed: 5420

Sample P1AE9457 (antibody, human IgG1, kappa, L234A L235A, V domains shown, human IgG1 PG LALA; from transgenic rabbit immunization; also called LTBR (9457)) VH: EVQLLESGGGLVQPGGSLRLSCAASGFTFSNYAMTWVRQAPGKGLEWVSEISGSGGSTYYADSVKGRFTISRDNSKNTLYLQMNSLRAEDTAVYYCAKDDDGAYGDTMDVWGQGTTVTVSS VL: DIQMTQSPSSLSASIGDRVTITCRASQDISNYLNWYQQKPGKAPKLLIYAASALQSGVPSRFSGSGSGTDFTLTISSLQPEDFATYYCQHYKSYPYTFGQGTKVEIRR ; MFI observed: 3380
